# credit: patent US11834453B2

- system_under_test: MDR1 (P-gp) (Homo sapiens (Human))
- Sequence (P08183 whole entry): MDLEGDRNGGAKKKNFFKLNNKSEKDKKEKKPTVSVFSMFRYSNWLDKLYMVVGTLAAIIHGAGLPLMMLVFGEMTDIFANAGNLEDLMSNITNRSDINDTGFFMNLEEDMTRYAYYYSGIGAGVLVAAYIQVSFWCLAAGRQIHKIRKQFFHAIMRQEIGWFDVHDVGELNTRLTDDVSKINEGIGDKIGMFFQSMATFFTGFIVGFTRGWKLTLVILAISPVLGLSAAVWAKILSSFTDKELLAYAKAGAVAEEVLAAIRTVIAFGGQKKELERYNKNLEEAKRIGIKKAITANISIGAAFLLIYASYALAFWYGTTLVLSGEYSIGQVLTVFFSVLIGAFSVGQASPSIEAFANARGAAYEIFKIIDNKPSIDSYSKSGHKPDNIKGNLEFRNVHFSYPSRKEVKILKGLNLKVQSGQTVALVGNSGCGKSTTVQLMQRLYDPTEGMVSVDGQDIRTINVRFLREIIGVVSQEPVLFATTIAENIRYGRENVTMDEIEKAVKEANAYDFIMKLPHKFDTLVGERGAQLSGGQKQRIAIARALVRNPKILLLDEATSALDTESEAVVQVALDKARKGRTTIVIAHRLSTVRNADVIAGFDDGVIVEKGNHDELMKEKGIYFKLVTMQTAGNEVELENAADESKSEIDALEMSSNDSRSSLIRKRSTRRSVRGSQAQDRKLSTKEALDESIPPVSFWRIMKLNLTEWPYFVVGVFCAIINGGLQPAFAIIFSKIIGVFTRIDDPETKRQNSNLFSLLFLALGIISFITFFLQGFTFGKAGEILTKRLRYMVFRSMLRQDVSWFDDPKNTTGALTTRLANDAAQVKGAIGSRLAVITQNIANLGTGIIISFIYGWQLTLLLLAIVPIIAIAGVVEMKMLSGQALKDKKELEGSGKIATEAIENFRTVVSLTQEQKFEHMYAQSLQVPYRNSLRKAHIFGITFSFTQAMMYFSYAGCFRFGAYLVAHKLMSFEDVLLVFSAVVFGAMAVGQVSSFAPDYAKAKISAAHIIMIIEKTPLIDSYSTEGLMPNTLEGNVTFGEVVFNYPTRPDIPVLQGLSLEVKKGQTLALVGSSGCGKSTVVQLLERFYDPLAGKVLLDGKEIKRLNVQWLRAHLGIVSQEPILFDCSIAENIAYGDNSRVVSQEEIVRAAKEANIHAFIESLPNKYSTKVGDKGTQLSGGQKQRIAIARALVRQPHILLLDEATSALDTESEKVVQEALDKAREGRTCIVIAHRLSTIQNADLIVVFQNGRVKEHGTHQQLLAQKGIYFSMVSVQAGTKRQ
- measurement_protocol: MDR1 transfected MDCKII canine Mdr1 knockout permeability/efflux, Assay 7
- run_conditions: dog, MDCK-MDR1
property_measured: efflux ratio at 2 h, 1 μM
Lab note: record the figure alone, no unit after it.

Dear colleague, I am looking for the recorded efflux ratio at 2 h, 1 μM of the following molecule: Cc1cc(Nc2ncnc3cnc(N(C)[C@@H]4CCOC4)nc23)ccc1Oc1ccc2c(c1)ncn2C 1.6

Requested read-out: efflux ratio at 2 h, 1 μM. Entry: Cc1cc(Nc2ncnc3cnc(N4CCN5CCOC[C@@H]5C4)nc23)ccc1Oc1ccc2c(c1)ncn2C 1.3

Dear colleague, I am looking for the recorded efflux ratio at 2 h, 1 μM of the following molecule: Cc1cc(Nc2ncnc3cnc(N4CCN[C@@H](C(F)(F)F)C4)nc23)ccc1Oc1ccc2c(c1)ncn2C 1.3

Look up efflux ratio at 2 h, 1 μM: Cc1cc(Nc2ncnc3cnc(N4CCN[C@H](C(F)(F)F)C4)nc23)ccc1Oc1ccc2c(c1)ncn2C 1.5
